Entries and their measured solubility follow.
Test: Solubility of the compound in RPMI-1640/Sula media by spectrophotometric analysis
Type: physicochemical
property: solubility

compound_structure_string=O=C(NCCCCl)Oc1ccc(Br)cc1C(=O)Nc1ccc(C(=O)c2ccccc2)cc1 readout_value="< 50 µM"
compound_structure_string=O=C(NCCCCl)Oc1ccc(Cl)cc1C(=O)Nc1ccc(Cl)c(Cl)c1 readout_value="< 50 µM"
compound_structure_string=O=C(NCCCl)Oc1ccc(Cl)cc1C(=O)Nc1ccc(Cl)c(Cl)c1 readout_value="< 50 µM"
compound_structure_string=O=C(NCCCl)Oc1ccc(Cl)cc1C(=O)Nc1ccc(C(=O)c2ccccc2)cc1 readout_value="< 50 µM"
compound_structure_string=O=C(NCCCCl)Oc1ccc(Cl)cc1C(=O)Nc1ccc(C(=O)c2ccccc2)cc1 readout_value="< 50 µM"
compound_structure_string=O=C(NCCCCl)Oc1ccc(Br)cc1C(=O)Nc1ccc(Cl)c(Cl)c1 readout_value="< 50 µM"
compound_structure_string=O=C(Oc1ccc(Br)cc1C(=O)Nc1ccc(Cl)c(Cl)c1)c1cnc(Cl)cn1 readout_value="< 100 µM"
compound_structure_string=O=C(NCCCl)Oc1ccc(Br)cc1C(=O)Nc1ccc(C(F)(F)F)cc1 readout_value="< 50 µM"
compound_structure_string=O=C(Nc1ccc(Cl)c(Cl)c1)c1cc(Cl)ccc1O readout_value="< 100 µM"
compound_structure_string=O=C(c1ccccc1)c1ccc(NC(=O)c2cc(Br)ccc2O)cc1 readout_value="< 50 µM"

* * *

Assay: Solubility of the compound in RPMI-1640/Sula media by spectrophotometric analysis
Format: physicochemical
property: solubility

compound_structure_string=O=C(c1ccccc1)c1ccc(NC(=O)c2cc(Cl)ccc2O)cc1 readout_value="< 50 µM"
compound_structure_string=O=C(NCCCl)Oc1ccc(Cl)cc1C(=O)Nc1ccc(C(F)(F)F)cc1 readout_value="< 50 µM"
compound_structure_string=O=C(NCCCCl)Oc1ccc(Br)cc1C(=O)Nc1ccc(C(F)(F)F)cc1 readout_value="< 50 µM"
compound_structure_string=O=C(O)c1cnc(Cl)cn1 readout_value="< 500 µM"

* * *

Test: Selectivity index, ratio of IC50 for human MONO-MAC-6 cells to MIC for Mycobacterium tuberculosis H37Rv ATCC 27294
Assay type: toxicity
Details: read-out: Selectivity Index
Classify: fulfilled when selectivity ratio is strictly less than 3; not fulfilled when selectivity ratio is not.

compound_structure_string=O=C(Oc1ccc(Br)cc1C(=O)Nc1ccc(Cl)c(Cl)c1)c1cnc(Cl)cn1 assigned_category=fulfilled
compound_structure_string=O=C(NCCCl)Oc1ccc(Br)cc1C(=O)Nc1ccc(C(F)(F)F)cc1 assigned_category="not fulfilled"
compound_structure_string=O=C(c1ccccc1)c1ccc(NC(=O)c2cc(Cl)ccc2O)cc1 assigned_category="not fulfilled"
compound_structure_string=O=C(NCCCCl)Oc1ccc(Cl)cc1C(=O)Nc1ccc(C(F)(F)F)cc1 assigned_category="not fulfilled"
compound_structure_string=O=C(Oc1ccc(Cl)cc1C(=O)Nc1ccc(C(F)(F)F)cc1)c1cnc(Cl)cn1 assigned_category=fulfilled
compound_structure_string=O=C(Oc1ccc(Br)cc1C(=O)Nc1ccc(C(F)(F)F)cc1)c1cnc(Cl)cn1 assigned_category=fulfilled
compound_structure_string=O=C(c1ccccc1)c1ccc(NC(=O)c2cc(Br)ccc2O)cc1 assigned_category=fulfilled
compound_structure_string=O=C(NCCCCl)Oc1ccc(Cl)cc1C(=O)Nc1ccc(Cl)c(Cl)c1 assigned_category=fulfilled
compound_structure_string=O=C(NCCCCl)Oc1ccc(Br)cc1C(=O)Nc1ccc(C(F)(F)F)cc1 assigned_category="not fulfilled"
compound_structure_string=O=C(NCCCCl)Oc1ccc(Br)cc1C(=O)Nc1ccc(Cl)c(Cl)c1 assigned_category="not fulfilled"

* * *

# MIC per record follows
System: Mycobacteroides abscessus
Test: Antimycobacterial activity against Mycobacterium abscessus ATCC 19977 after 7 days by serial dilution method
Format: functional
Conditions: Mycobacteroides abscessus, ATCC 19977, 168 h
property: MIC (µM)

compound_structure_string=O=C(O)c1cn(C2CC2)c2cc(N3CCNCC3)c(F)cc2c1=O property=MIC unit_descriptor=µM readout_qualifier== readout_value=3
compound_structure_string=O=C(O)c1cnc(Cl)cn1 property=MIC unit_descriptor=µM readout_qualifier=> readout_value=633
compound_structure_string=CCCNC(=O)Oc1ccc(Cl)cc1C(=O)Nc1ccc(C(=O)c2ccccc2)cc1 property=MIC unit_descriptor=µM readout_qualifier== readout_value=22.9
compound_structure_string=O=C(NCCCl)Oc1ccc(Cl)cc1C(=O)Nc1ccc(Cl)c(Cl)c1 property=MIC unit_descriptor=µM readout_qualifier== readout_value=1.2
compound_structure_string=O=C(NCCCCl)Oc1ccc(Br)cc1C(=O)Nc1ccc(Cl)c(Cl)c1 property=MIC unit_descriptor=µM readout_qualifier== readout_value=2.1
compound_structure_string=O=C(NCCCl)Oc1ccc(Br)cc1C(=O)Nc1ccc(C(=O)c2ccccc2)cc1 property=MIC unit_descriptor=µM readout_qualifier== readout_value=40
compound_structure_string=O=C(Oc1ccc(Cl)cc1C(=O)Nc1ccc(C(F)(F)F)cc1)c1cnc(Cl)cn1 property=MIC unit_descriptor=µM readout_qualifier== readout_value=5.5
compound_structure_string=O=C(Oc1ccc(Cl)cc1C(=O)Nc1ccc(Cl)c(Cl)c1)c1cnc(Cl)cn1 property=MIC unit_descriptor=µM readout_qualifier== readout_value=1.1
compound_structure_string=O=C(Nc1ccc(C(F)(F)F)cc1)c1cc(Br)ccc1O property=MIC unit_descriptor=µM readout_qualifier== readout_value=13.9
compound_structure_string=O=C(Nc1ccc(C(F)(F)F)cc1)c1cc(Cl)ccc1O property=MIC unit_descriptor=µM readout_qualifier== readout_value=3.2
compound_structure_string=O=C(c1ccccc1)c1ccc(NC(=O)c2cc(Br)ccc2O)cc1 property=MIC unit_descriptor=µM readout_qualifier== readout_value=25.3
compound_structure_string=O=C(c1ccccc1)c1ccc(NC(=O)c2cc(Cl)ccc2O)cc1 property=MIC unit_descriptor=µM readout_qualifier== readout_value=28.5
compound_structure_string=O=C(NCCCCl)Oc1ccc(Br)cc1C(=O)Nc1ccc(C(=O)c2ccccc2)cc1 property=MIC unit_descriptor=µM readout_qualifier== readout_value=38.9
compound_structure_string=O=C(Nc1ccc(Cl)c(Cl)c1)c1cc(Br)ccc1O property=MIC unit_descriptor=µM readout_qualifier== readout_value=7
compound_structure_string=O=C(NCCCl)Oc1ccc(Cl)cc1C(=O)Nc1ccc(C(=O)c2ccccc2)cc1 property=MIC unit_descriptor=µM readout_qualifier== readout_value=43.6
compound_structure_string=CCCNC(=O)Oc1ccc(Cl)cc1C(=O)Nc1ccc(Cl)c(Cl)c1 property=MIC unit_descriptor=µM readout_qualifier== readout_value=1.3
compound_structure_string=O=C(NCCCl)Oc1ccc(Br)cc1C(=O)Nc1ccc(C(F)(F)F)cc1 property=MIC unit_descriptor=µM readout_qualifier== readout_value=4.3
compound_structure_string=O=C(Oc1ccc(Br)cc1C(=O)Nc1ccc(C(F)(F)F)cc1)c1cnc(Cl)cn1 property=MIC unit_descriptor=µM readout_qualifier== readout_value=5
compound_structure_string=O=C(Oc1ccc(Br)cc1C(=O)Nc1ccc(Cl)c(Cl)c1)c1cnc(Cl)cn1 property=MIC unit_descriptor=µM readout_qualifier== readout_value=1
compound_structure_string=O=C(NCCCl)Oc1ccc(Cl)cc1C(=O)Nc1ccc(C(F)(F)F)cc1 property=MIC unit_descriptor=µM readout_qualifier== readout_value=1.2
compound_structure_string=O=C(NCCCCl)Oc1ccc(Br)cc1C(=O)Nc1ccc(C(F)(F)F)cc1 property=MIC unit_descriptor=µM readout_qualifier== readout_value=0.2
compound_structure_string=O=C(NCCCCl)Oc1ccc(Cl)cc1C(=O)Nc1ccc(Cl)c(Cl)c1 property=MIC unit_descriptor=µM readout_qualifier== readout_value=1.2

* * *

Test: Half life of the compound in serum-free RPMI-1640 medium at 0.75 mg/ml by RP-HPLC analysis
Format: ADME
property: half-life at 0.75 mg/ml (h)

compound_structure_string=O=C(NCCCCl)Oc1ccc(Br)cc1C(=O)Nc1ccc(C(F)(F)F)cc1 property="half-life at 0.75 mg/ml" readout_value=0.183
compound_structure_string=O=C(Oc1ccc(Br)cc1C(=O)Nc1ccc(C(F)(F)F)cc1)c1cnc(Cl)cn1 property="half-life at 0.75 mg/ml" readout_value=3.7

* * *

Test system: Mycobacteroides abscessus
Assay: Antimycobacterial activity against Mycobacterium abscessus ATCC 19977 after 7 days by serial dilution method
Format: functional
Details: Mycobacteroides abscessus, ATCC 19977, 168 h
property: MIC (µM)

compound_structure_string=O=C(NCCCCl)Oc1ccc(Cl)cc1C(=O)Nc1ccc(C(=O)c2ccccc2)cc1 experimental_system="Mycobacteroides abscessus" property=MIC readout_value=42.5
compound_structure_string=O=C(NCCCl)Oc1ccc(Br)cc1C(=O)Nc1ccc(Cl)c(Cl)c1 experimental_system="Mycobacteroides abscessus" property=MIC readout_value=0.2
compound_structure_string=O=C(NCCCCl)Oc1ccc(Cl)cc1C(=O)Nc1ccc(C(F)(F)F)cc1 experimental_system="Mycobacteroides abscessus" property=MIC readout_value=0.2
compound_structure_string=O=C(Nc1ccc(Cl)c(Cl)c1)c1cc(Cl)ccc1O experimental_system="Mycobacteroides abscessus" property=MIC readout_value=3.2
compound_structure_string=NNC(=O)c1ccncc1 experimental_system="Mycobacteroides abscessus" property=MIC readout_value=292
